biological target: T1, HLA-A*02:01 (peptide-receptive MHC class I monomer from UV-ligand exchange) (human); test: UV-exchange ELISA (anti-b2m); exchange yield grade: + >=10%, ++ >=20%, +++ >=50%, ++++ >=75%
T1 construct: Monomers were captured on streptavidin-coated plates
Listing: peptide exchange yield of selected binders

Study these solved cases before continuing.
LLADLKTMV [peptide LLADLKTMV (SEQ ID NO 118)]    50 to 75%
GLLESPSIFNFTA [peptide GLLESPSIFNFTA (SEQ ID NO 36)]    50 to 75%
AMNGKSFSV [peptide AMNGKSFSV (SEQ ID NO 98)]    20 to 50%
LLFDAPDLRL [peptide LLFDAPDLRL (SEQ ID NO 87)]    50 to 75%
RLAELTVDEFL [peptide RLAELTVDEFL (SEQ ID NO 4)]    50 to 75%

# peptide exchange yield lookup, item FLVDGPRVQL [peptide FLVDGPRVQL (SEQ ID NO 188)]
50 to 75%

# peptide exchange yield lookup, item YLFEKTFNM [peptide YLFEKTFNM (SEQ ID NO 11)]
50 to 75%

# peptide exchange yield lookup, item TAVGHALVL [peptide TAVGHALVL (SEQ ID NO 114)]
10 to 20%
